Tested target: human P5C reductase 1 (PYCR1) (Homo sapiens, UniProt P32322)
Construct: His-tag; made in house; host or cells: E. coli BL21(DE3) pLysS
Method description: P5C reductase assay (P5C-dependent oxidation of NAD(P)H)
Format: biochemical
Assay conditions: KI, NADPH as variable substrate (Fig. 4C)
Outcome measure: Ki (nM)
Numeric only. Scale: nM

Data request: # query: Ki of entry O=P(O)(O)C(Nc1cc(Br)cc(Br)c1)P(=O)(O)O
Data returned: 480

* * *

Tested target: human P5C reductase 1 (PYCR1) (Homo sapiens, UniProt P32322)
Construct: His-tag; made in house; host or cells: E. coli BL21(DE3) pLysS
Method description: P5C reductase assay (P5C-dependent oxidation of NAD(P)H)
Assay type: biochemical
Assay conditions: KI, NADH as variable substrate (Fig. 4D)
Outcome measure: pKi
The read-out pKi is expressed as -log10 of concentration in moles per litre.

Data request: # query: pKi of entry O=P(O)(O)C(Nc1cc(Br)cc(Br)c1)P(=O)(O)O [Br2PAMBPA]
Data returned: 6.18

* * *

Tested target: human P5C reductase 1 (PYCR1) (Homo sapiens, UniProt P32322)
Construct: His-tag; made in house; host or cells: E. coli BL21(DE3) pLysS
Sequence (P32322 1-319): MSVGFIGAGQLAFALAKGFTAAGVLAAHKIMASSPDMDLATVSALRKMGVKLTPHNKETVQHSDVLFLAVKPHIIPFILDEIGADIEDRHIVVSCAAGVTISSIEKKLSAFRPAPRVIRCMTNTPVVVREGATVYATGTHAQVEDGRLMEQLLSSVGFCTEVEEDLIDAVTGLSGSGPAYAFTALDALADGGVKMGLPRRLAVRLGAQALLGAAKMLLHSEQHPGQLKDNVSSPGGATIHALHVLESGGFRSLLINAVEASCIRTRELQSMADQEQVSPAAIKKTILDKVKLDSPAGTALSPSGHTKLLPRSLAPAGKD
Method description: P5C reductase assay (P5C-dependent oxidation of NAD(P)H)
Assay type: biochemical
Assay conditions: NADPH as the electron donor; read-out: IC50
Outcome measure: pIC50
The read-out pIC50 is expressed as -log10 of concentration in moles per litre.

Data request: # query: pIC50 of entry C#CCN(C)Cc1ccc(Br)cc1 [4-bromopargyline, reference compound]
Data returned: 5.06

* * *

Tested target: human P5C reductase 1 (PYCR1) (Homo sapiens)
Construct: His-tag; made in house; host or cells: E. coli BL21(DE3) pLysS
Method description: P5C reductase assay (P5C-dependent oxidation of NAD(P)H)
Type: biochemical
Assay conditions: IC50, NADH as the electron donor
Hi there, I'd appreciate the recorded IC50 for every entry that follows.

Data request: # query: IC50 of entry C#CCN(C)Cc1ccc(Br)cc1 [4-bromopargyline, reference compound]
Data returned: 234 µM

Data request: # query: IC50 of entry C#CCN(C)Cc1ccccc1 [Pargyline, reference compound]
Data returned: > 10000 µM

Data request: # query: IC50 of entry O=P(O)(O)C(Nc1cc(Br)cc(Br)c1)P(=O)(O)O
Data returned: 0.48 µM

Data request: # query: IC50 of entry O=P(O)(O)C(Nc1cc(Cl)cc(Cl)c1)P(=O)(O)O
Data returned: 0.78 µM

* * *

Tested target: human P5C reductase 1 (PYCR1) (Homo sapiens, UniProt P32322)
Construct: His-tag; made in house; host or cells: E. coli BL21(DE3) pLysS
Method description: P5C reductase assay (P5C-dependent oxidation of NAD(P)H)
Type: biochemical
Assay conditions: KI, P5C as variable substrate, NADH as electron donor (Fig. 4B)
Outcome measure: Ki (nM)
Numeric only. Scale: nM

Data request: # query: Ki of entry O=P(O)(O)C(Nc1cc(Br)cc(Br)c1)P(=O)(O)O
Data returned: 120

Source listed as paper PMC8205077.
